biological target: Ephrin type-A receptor 4 (Mus musculus, UniProt Q03137); assay: EphA4 ligand-binding antagonists – biochemical, colorimetric, mouse EphA4, primary screen (AID 689); assay type: functional
Sequence (Q03137 whole entry): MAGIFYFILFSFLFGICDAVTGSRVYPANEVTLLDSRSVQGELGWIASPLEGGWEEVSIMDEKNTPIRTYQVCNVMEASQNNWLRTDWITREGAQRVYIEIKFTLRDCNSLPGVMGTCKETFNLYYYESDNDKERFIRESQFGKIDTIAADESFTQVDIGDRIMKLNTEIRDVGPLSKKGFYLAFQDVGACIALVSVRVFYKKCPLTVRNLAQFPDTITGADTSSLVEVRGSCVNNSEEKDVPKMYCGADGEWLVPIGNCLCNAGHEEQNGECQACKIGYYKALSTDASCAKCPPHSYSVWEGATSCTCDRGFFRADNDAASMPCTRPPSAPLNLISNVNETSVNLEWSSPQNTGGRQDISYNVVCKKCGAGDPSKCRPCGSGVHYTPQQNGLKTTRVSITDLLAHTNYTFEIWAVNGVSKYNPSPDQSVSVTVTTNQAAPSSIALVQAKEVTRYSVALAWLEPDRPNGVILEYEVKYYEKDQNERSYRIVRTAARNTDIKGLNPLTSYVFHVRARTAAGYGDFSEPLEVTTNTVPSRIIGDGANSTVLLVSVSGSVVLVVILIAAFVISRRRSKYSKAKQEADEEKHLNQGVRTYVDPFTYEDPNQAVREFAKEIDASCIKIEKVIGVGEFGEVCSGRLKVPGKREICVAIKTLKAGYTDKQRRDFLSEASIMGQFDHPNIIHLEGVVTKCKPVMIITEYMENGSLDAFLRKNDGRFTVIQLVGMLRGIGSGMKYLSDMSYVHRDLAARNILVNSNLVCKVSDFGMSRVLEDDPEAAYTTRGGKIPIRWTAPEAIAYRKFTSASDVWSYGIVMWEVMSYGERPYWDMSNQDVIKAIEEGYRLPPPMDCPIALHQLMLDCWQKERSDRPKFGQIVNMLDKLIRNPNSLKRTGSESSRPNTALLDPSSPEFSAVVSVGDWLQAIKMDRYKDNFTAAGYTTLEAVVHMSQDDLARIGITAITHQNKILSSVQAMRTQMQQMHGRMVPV
Active and inactive are the calls of the source.
# Lookup of reported IC50 keyed by entry

# compound.smiles, subject.of.test, IC50
rows = [
    ("CC1=N/C(=C\\c2ccc([N+](=O)[O-])cc2)C(=O)N1c1cc(Cl)ccc1C", "Ephrin type-A receptor 4 (Mus musculus, UniProt Q03137)", "3.45 µM (active)"),
    ("COc1cc(NC(=O)c2ccc(COCC(F)(F)F)cc2)cc(OC)c1OC", "Ephrin type-A receptor 4 (Mus musculus, UniProt Q03137)", "> 100 µM (not active)"),
    ("CCN(CC)C(=O)CSc1nc2cc(OC)c(OC)cc2c(=O)n1Cc1ccc(Cl)cc1", "Ephrin type-A receptor 4 (Mus musculus, UniProt Q03137)", "> 100 µM (not active)"),
]

Now consider a different molecule.
Summary for this molecule, COc1ccc(-n2c(NC(=O)c3ccc(Br)o3)c(C#N)c3nc4ccccc4nc32)cc1 : IC50 is > 100 µM (not active)

====

target: DNA dC->dU-editing enzyme APOBEC-3G (Homo sapiens, UniProt Q9HC16); type: functional;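 further: Dose-response counterscreen measuring inhibition of APOBEC3G DNA deaminase activity, run while confirming APOBEC3A inhibitors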
Sequence (Q9HC16 whole entry): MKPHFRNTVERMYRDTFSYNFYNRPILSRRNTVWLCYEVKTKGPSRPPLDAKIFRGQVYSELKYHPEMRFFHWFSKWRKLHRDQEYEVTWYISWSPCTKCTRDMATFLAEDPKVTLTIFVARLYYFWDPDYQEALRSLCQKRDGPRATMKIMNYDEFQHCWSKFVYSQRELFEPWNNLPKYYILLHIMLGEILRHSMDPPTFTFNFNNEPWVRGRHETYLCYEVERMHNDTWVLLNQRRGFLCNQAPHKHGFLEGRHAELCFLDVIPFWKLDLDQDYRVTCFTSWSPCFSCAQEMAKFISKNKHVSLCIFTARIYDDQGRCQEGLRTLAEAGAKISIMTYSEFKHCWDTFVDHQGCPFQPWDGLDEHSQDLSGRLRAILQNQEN
Calls of active or inactive are those of the source.
Reported IC50 by item:

These solved cases illustrate the format of a correct answer.
# compound, subject.of.test, IC50
measured = [
    ("CCOC(=O)c1ccc2c(c1)N(C)C(=O)c1ccccc1S2", "DNA dC->dU-editing enzyme APOBEC-3G (Homo sapiens, UniProt Q9HC16)", "> 100 µM (inactive)"),
    ("Cc1cc(/C=C2\\C(=O)NC(=O)N(c3cccc(F)c3)C2=O)c(C)n1-c1cc(C(=O)O)cc(C(=O)O)c1", "DNA dC->dU-editing enzyme APOBEC-3G (Homo sapiens, UniProt Q9HC16)", "27.4 µM (active)"),
    ("CCc1n(CC(O)COC2CCCCC2)c2ccccc2[n+]1C (stereo not given)", "DNA dC->dU-editing enzyme APOBEC-3G (Homo sapiens, UniProt Q9HC16)", "1.42 µM (active)"),
]

Lookup result for O=C(CSc1ccccn1)Nc1cccc2ccccc12 ; measured IC50: 6 µM (active)

Short answer for CCN(CC(=O)Nc1c(F)cccc1F)C(=O)c1cccc(-n2cccc2)c1 : IC50 was 34.8 µM (active)

====

biological target: Heat shock factor protein 1 (Mus musculus); experiment: decrease of HSF1-responsive luciferase luminescence – cell-based, NIH3T3, dose retest, confirmation (AID 2382); assay type: functional;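 further: NIH3T3 fibroblasts with HSF1-driven luciferase reporter stressed by proteasome inhibitor MG132; luminescence from HSF1-driven luciferase expression after 8 hours of MG132 stress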
Sequence (P38532 whole entry): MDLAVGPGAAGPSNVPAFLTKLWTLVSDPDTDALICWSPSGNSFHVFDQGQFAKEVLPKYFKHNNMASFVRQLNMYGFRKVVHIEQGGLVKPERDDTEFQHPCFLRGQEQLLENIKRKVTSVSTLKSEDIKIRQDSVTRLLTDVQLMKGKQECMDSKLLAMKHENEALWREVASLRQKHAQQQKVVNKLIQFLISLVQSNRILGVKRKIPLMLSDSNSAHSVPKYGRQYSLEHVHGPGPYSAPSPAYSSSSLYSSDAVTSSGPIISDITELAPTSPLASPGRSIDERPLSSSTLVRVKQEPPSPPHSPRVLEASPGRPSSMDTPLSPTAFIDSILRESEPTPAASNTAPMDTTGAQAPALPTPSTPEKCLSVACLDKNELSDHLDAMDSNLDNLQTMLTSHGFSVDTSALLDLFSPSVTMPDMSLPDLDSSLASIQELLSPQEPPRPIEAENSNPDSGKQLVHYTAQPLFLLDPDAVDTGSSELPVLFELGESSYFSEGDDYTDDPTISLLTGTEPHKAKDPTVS
Activity calls are given as the source filed them.
quantity.name: EC50

Please review the entries below; each comes with its answer.
# compound.smiles, quantity.name, reading
records = [
    ("Cc1ccc(C(=O)N/N=C/c2ccc([N+](=O)[O-])s2)cc1", "EC50", "0.324 µM (active)"),
    ("Cc1cc(OCC(=O)NCCc2ccc(S(N)(=O)=O)cc2)c2c(C)cc(=O)oc2c1", "EC50", "> 195 µM (not active)"),
    ("O=C(O)CN1C(=O)/C(=C\\c2ccccc2OCc2ccc(Cl)cc2Cl)SC1=S", "EC50", "2.58 µM (active)"),
    ("CCCCCn1c(SCC(=O)CC(=O)OCC)nc2cc(C(=O)N3CCC(C(N)=O)CC3)ccc2c1=O", "EC50", "> 195 µM (not active)"),
]

Record O=C(C1=C[C@H](c2ccc(Br)cc2)C[C@H](OCCCCO)O1)N1CCN(Cc2ccc3c(c2)OCO3)CC1 , field EC50: > 195 µM (not active)

What the record says about COc1cc(SC)ccc1C(=O)Nc1nc(C)cs1 : EC50 is 0.845 µM (active)

// sample Cn1cc(CN2CCc3ccccc3C2)c2ccccc21 , its EC50 was > 195 µM (not active)

Query CCCc1nc(-c2ccccc2O)n(-c2ccccc2)n1 yields EC50 of > 195 µM (not active)

Form: compound = O=C(CCc1ccccc1)Nc1cccc([N+](=O)[O-])c1 ; EC50 = > 195 µM (not active)

EC50 in this record for CCOc1ccc(NCc2cccn2-c2nnc(N3CCC(C(=O)NCCCN4CCCCC4)CC3)s2)cc1 : > 195 µM (not active)

====

Target: Protein skinhead-1 (Caenorhabditis elegans)
Sequence (P34707 whole entry): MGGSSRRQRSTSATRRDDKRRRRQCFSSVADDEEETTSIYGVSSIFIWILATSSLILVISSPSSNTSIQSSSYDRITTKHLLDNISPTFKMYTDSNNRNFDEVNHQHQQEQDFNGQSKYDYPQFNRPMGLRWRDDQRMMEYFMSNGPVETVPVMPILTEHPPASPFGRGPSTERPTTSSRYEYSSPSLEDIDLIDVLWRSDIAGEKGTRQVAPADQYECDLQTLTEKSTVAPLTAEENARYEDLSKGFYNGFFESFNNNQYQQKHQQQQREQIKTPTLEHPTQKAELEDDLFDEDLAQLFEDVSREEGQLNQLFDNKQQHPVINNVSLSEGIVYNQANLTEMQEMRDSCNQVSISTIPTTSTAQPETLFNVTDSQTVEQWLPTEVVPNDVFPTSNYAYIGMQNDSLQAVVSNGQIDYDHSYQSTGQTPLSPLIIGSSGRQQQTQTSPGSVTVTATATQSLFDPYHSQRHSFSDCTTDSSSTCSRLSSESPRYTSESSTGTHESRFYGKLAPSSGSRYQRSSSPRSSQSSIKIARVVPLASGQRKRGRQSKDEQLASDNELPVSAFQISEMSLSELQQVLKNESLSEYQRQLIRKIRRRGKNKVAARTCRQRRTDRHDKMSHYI
Type: functional
The source made the active and inactive calls.
quantity.name: IC50

Answered examples (5):
# compound.smiles, reading
data = [
    ("Cc1c(C(=O)N2CCN(S(=O)(=O)c3ccccc3F)CC2)oc2c(Cl)cccc12", "> 100 µM (inactive)"),
    ("O=C(O)c1ccc2c(c1)CCCN2", "> 100 µM (inactive)"),
    ("c1ccc(-c2nc3cc4ccccc4cc3[nH]2)nc1", "9.19 µM (active)"),
    ("O=C(/C=C/Nc1ccc(Oc2ccccc2)cc1)c1ccco1", "> 100 µM (inactive)"),
    ("O=[N+]([O-])c1ccc(Cc2nnc(O)c3ccccc23)cc1", "> 100 µM (inactive)"),
]

Record COc1ccc2c(c1)Cc1sc(NC(=O)c3ccccc3)nc1-2 ; system Protein skinhead-1 (Caenorhabditis elegans); IC50 = > 100 µM (inactive)

Short answer on Protein skinhead-1 (Caenorhabditis elegans) for Clc1ccc(Nc2ncnc3c2cnn3-c2ccccc2)cc1 , IC50: > 100 µM (inactive)

Lab entry: Protein skinhead-1 (Caenorhabditis elegans) assay, compound CC(=O)CSc1nc2ccccc2s1 , IC50 = > 100 µM (inactive)

====

Molecular target: High affinity choline transporter 1 (Homo sapiens, UniProt Q9GZV3)
Sequence (Q9GZV3 whole entry): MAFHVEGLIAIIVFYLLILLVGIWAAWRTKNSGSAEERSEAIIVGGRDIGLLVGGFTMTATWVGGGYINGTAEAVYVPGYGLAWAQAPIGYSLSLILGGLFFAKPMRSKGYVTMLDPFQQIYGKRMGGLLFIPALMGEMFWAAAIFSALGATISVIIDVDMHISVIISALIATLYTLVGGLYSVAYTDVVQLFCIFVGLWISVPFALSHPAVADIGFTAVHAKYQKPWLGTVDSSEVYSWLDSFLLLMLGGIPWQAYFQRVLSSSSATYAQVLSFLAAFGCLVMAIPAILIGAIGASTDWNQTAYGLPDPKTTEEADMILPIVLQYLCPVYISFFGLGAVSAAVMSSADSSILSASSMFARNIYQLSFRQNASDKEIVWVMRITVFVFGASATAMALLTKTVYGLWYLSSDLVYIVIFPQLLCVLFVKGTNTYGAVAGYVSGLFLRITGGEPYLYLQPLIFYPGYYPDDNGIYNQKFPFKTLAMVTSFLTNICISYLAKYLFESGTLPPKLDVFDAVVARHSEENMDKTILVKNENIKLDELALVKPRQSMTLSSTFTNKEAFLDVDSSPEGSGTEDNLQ
Test: human choline transporter blockers, potency – cell-based, 10-point CRC, membrane potential dye, dose response (AID 588401);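 further: membrane potential dye fluorescence of choline-evoked depolarization via CHT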
Type: functional
Activity calls are given as the source filed them.
quantity.name: IC50

Solved cases (3 shown):
# compound, subject.of.test, IC50
rows = [
    ("CC1CCCCC1NC(=O)c1cccc(S(=O)(=O)N2CCN(C)CC2)c1 (centres undefined)", "High affinity choline transporter 1 (Homo sapiens, UniProt Q9GZV3)", "4.22 µM (active)"),
    ("O=C(NN1C(=O)/C(=C/c2cccs2)SC1=S)c1ccncc1", "High affinity choline transporter 1 (Homo sapiens, UniProt Q9GZV3)", "7.13 µM (active)"),
    ("Cn1c(/C=C/N(Cc2ccccc2)c2ccccc2)c([N+](=O)[O-])c(=O)n(C)c1=O", "High affinity choline transporter 1 (Homo sapiens, UniProt Q9GZV3)", "3.12 µM (active)"),
]

Entry OCCN1CCN(c2ncnc3scc(-c4ccc(F)cc4)c23)CC1 , IC50 reported as 7.51 µM (active)
